# Assay target: CFTR ΔF508 mutant (Homo sapiens, UniProt P13569, DEL508-508)
# Construct: expressed in transfected cells; host or cells: CFBE41o- (adenoviral transduction)
# Sequence (P13569 with tags, fused parts or gaps DEL508-508): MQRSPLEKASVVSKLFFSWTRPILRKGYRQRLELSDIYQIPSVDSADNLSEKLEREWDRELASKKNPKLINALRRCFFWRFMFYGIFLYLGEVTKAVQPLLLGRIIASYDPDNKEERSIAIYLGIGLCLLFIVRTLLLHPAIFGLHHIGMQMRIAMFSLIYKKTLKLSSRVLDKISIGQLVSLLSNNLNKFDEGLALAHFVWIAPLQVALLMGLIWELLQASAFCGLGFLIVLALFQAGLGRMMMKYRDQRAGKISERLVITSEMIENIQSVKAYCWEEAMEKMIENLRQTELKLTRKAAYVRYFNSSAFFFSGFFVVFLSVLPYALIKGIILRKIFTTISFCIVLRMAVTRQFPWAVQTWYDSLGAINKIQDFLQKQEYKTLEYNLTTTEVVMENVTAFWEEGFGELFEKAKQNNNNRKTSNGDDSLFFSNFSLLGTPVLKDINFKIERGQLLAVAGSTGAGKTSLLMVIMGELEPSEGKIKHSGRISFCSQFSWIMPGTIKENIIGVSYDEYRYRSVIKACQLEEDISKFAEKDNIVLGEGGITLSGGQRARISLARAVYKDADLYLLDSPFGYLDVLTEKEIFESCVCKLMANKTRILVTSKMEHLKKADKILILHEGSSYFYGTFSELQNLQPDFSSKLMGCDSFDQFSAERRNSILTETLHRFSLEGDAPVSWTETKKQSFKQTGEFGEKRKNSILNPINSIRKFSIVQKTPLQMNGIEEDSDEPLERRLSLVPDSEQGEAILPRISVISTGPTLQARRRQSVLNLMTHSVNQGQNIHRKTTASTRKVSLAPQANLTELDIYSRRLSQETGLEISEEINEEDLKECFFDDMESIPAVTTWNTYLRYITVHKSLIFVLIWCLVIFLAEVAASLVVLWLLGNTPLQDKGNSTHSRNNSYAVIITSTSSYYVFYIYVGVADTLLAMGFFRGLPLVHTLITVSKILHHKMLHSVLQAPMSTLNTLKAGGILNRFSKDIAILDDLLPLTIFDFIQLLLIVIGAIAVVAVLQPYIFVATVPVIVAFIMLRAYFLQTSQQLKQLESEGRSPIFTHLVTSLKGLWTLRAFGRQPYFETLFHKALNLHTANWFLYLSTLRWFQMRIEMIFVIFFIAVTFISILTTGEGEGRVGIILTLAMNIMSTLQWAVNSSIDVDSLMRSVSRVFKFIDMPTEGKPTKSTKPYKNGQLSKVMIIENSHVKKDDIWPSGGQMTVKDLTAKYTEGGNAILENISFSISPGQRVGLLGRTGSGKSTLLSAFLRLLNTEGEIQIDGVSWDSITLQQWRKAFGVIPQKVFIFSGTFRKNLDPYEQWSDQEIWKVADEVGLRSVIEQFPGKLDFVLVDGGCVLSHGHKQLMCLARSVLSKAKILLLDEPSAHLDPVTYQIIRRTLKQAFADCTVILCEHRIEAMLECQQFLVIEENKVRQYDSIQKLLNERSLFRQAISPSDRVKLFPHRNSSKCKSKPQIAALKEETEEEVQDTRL
# Method summary: YFP-halide influx assay for the CFTR-ΔF508 mutation, PBS buffer (96 well)
# Assay type: cell-based
# Assay conditions: CFBE41o- cells, forskolin 10.67 μM
Assay readout: log10 of EC50 (log10 of the value in nM)

# Molecule, Assay value
data = [
    ("CC(C)(O)C(=O)Nc1sc(S(=O)(=O)c2ccccc2Cl)cc1C(N)=O", 1.54),
    ("CC(C)c1ccccc1S(=O)(=O)c1cc(C(N)=O)c(NC(=O)C2(O)CC2)s1", 1.31),
    ("CC(C)c1ccccc1S(=O)(=O)c1cc(C(N)=O)c(NC(=O)c2ccccc2F)s1", 1.49),
    ("Cc1cccc(C(=O)Nc2sc(S(=O)(=O)N3CCOCC3)cc2C(N)=O)c1O", 2.33),
    ("CC(C)(O)C(=O)Nc1sc(S(=O)(=O)c2ccc3c(c2)OC(F)(F)O3)cc1C(N)=O", 1.63),
    ("CC(C)(O)C(=O)Nc1sc(S(=O)(=O)c2ccc(F)cc2)cc1C(N)=O", 1.69),
    ("NC(=O)c1cc(S(=O)(=O)c2ccc(F)cc2)sc1NC(=O)C1(O)CCC1", 1.57),
    ("CC1CN(S(=O)(=O)c2cc(C(N)=O)c(NC(=O)C3(O)CC3)s2)CCO1 (stereo not shown)", 2.79),
    ("Cc1cc(F)ccc1S(=O)(=O)c1cc(C(N)=O)c(NC(=O)C2(O)CC2)s1", 1.42),
    ("CC(C)(O)C(=O)Nc1sc(S(=O)(=O)c2cc(Cl)ccc2F)cc1C(N)=O", 1.57),
]

====

# Assay target: CFTR G551D mutant (Homo sapiens, UniProt P13569, G551D)
# Construct: expressed in transfected cells; host or cells: HEK293 (reverse transfection with plasmid)
# Sequence (P13569 whole entry G551D): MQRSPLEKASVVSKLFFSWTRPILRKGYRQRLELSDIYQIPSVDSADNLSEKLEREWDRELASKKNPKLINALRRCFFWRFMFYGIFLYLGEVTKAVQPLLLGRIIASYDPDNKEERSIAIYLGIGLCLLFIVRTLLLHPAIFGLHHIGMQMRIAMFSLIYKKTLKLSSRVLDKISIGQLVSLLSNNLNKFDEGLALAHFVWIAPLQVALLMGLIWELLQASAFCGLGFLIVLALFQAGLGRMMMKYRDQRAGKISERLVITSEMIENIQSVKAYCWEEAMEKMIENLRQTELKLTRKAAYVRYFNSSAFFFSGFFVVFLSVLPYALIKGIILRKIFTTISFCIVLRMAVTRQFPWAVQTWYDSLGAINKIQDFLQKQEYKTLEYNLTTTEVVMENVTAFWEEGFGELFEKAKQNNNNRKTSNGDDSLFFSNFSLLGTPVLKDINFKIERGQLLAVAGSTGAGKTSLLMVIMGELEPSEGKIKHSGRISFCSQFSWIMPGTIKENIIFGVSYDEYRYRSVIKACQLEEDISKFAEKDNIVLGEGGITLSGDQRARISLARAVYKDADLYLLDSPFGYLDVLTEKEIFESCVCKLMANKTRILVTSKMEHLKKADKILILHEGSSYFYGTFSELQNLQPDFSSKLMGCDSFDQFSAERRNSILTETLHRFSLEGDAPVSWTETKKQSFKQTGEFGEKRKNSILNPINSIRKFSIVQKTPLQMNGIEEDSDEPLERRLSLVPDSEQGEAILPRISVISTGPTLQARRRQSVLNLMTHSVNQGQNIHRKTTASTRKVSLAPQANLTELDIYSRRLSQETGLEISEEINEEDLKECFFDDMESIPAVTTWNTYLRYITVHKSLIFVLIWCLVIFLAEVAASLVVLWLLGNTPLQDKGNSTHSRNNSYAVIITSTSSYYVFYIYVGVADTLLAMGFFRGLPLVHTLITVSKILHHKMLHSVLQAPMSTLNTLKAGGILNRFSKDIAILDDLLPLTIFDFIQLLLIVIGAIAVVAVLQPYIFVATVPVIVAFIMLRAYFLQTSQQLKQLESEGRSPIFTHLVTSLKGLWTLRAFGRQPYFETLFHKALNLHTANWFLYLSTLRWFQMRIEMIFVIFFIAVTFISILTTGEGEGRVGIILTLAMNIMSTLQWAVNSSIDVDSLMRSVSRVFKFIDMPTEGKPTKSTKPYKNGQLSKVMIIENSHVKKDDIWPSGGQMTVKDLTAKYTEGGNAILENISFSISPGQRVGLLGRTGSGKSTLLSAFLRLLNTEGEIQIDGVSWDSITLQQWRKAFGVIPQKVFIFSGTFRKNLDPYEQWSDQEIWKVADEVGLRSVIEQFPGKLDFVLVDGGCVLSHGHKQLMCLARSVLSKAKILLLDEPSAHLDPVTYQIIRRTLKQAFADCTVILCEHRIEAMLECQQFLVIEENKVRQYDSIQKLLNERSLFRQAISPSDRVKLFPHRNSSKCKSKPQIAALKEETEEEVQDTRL
# Method summary: YFP-halide influx assay for the CFTR-G551D mutation
# Format: cell-based
# Assay conditions: HEK293 cells, forskolin 10.67 μM
Documented EC50 across a set of compounds

# Compound string, Assay target, EC50 (nM)
rows = [
    ("CC(C)Oc1ccc(S(=O)(=O)c2cc(C(N)=O)c(NC(=O)C(C)(C)O)s2)c(Cl)c1", "CFTR G551D mutant (Homo sapiens, UniProt P13569, G551D)", 919),
    ("CC(C)(O)C(=O)Nc1sc(S(=O)(=O)c2cc(F)ccc2CC(F)(F)F)cc1C(N)=O", "CFTR G551D mutant (Homo sapiens, UniProt P13569, G551D)", 859),
    ("CC(C)(O)C(=O)Nc1sc(S(=O)(=O)c2cccc(OC(F)(F)F)c2)cc1C(N)=O", "CFTR G551D mutant (Homo sapiens, UniProt P13569, G551D)", 935),
    ("CC(C)(O)C(=O)Nc1sc(S(=O)(=O)c2ccccc2Cl)cc1C(N)=O", "CFTR G551D mutant (Homo sapiens, UniProt P13569, G551D)", 880),
]
